Test system: WEE1
Settings: concentration: 1 μM,replicates: in singlicate; n = 1;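 note: KINOMEscan kinase panel screen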
observed property: %Inh (%)

compound: Cc1n[nH]c2cc(Nc3ccnc(Nc4cccc(CN5CCOCC5)c4)n3)ccc12
system: WEE1
reported value: 10

compound: CN1CCN(CCNc2nc3cc(Oc4ccc(NC(=O)Nc5cc(C(F)(F)F)ccc5F)cc4)ccc3[nH]2)CC1.Cl.Cl
system: WEE1
reported value: 8

compound: Cc1ccc(Nc2ccnc(Nc3ccc4c(c3)CS(=O)(=O)C4)n2)cc1O.Cl
system: WEE1
reported value: 50

compound: O=C(Nc1ccccc1)c1cccc(Oc2ccc3nccn3n2)c1
system: WEE1
reported value: 0

compound: CCn1c(-c2nonc2N)nc2cncc(CNC3CCNCC3)c21.Cl
system: WEE1
reported value: 8

compound: c1ccc(Oc2ccc(Nc3ccnc4ccc(-c5ccccn5)cc34)cc2)cc1
system: WEE1
reported value: 15

compound: OCCn1cc(-c2cnc3nnn(Cc4ccc5ncccc5c4)c3n2)cn1
system: WEE1
reported value: 0

compound: CN(c1cccc(CNc2nc(Nc3ccc4c(c3)CC(=O)N4)ncc2C(F)(F)F)c1)S(C)(=O)=O
system: WEE1
reported value: 0

compound: CCNCC(Cc1ccccc1)NC(=O)c1cc(Br)c(-c2ccnc3[nH]ccc23)s1.Cl.Cl (stereo not drawn)
system: WEE1
reported value: 0

compound: CC(C(=O)NC1CCN(c2ccnc(Nc3ccc(F)cc3)n2)C1)c1ccc(Cl)cc1 (stereo not drawn)
system: WEE1
reported value: 6

compound: CN(c1ccccc1CNc1nc(Nc2ccc3c(c2)CC(=O)N3)ncc1C(F)(F)F)S(C)(=O)=O
system: WEE1
reported value: 0

compound: Cn1ccc2ncnc(Oc3ccc(NC(=O)Nc4cnn(C(C)(C)C)c4)c(Cl)c3)c21
system: WEE1
reported value: 0

compound: N#Cc1cccc(C(=O)NC2CCN(c3ccnc(Nc4ccc(F)cc4)n3)C2)c1 (stereo not drawn)
system: WEE1
reported value: 12

compound: Cc1cccc(-c2nc(Nc3ccncc3)c3sccc3n2)n1
system: WEE1
reported value: 20

compound: CN1CCN(CCCNc2nccc(-c3c(-c4ccc(F)cc4)nn4cc(C(N)=O)ccc34)n2)CC1
system: WEE1
reported value: 2

compound: CCn1c(-c2nonc2N)nc2cncc(Br)c21
system: WEE1
reported value: 13

compound: O=C(Nc1n[nH]c2cc(-c3ccco3)ccc12)C1CC1
system: WEE1
reported value: 0

compound: CS(=O)c1ccc(-c2coc3ccc(-c4n[nH]c(=O)o4)cc23)cc1 (stereo not drawn)
system: WEE1
reported value: 2

---

Each entry below carries its reported %Inh.
System: NDR1
Construct: gene STK38
Settings: concentration: 1 μM,replicates: in singlicate; n = 1

compound: Cn1ccc2ncnc(Oc3ccc(NC(=O)Nc4cccc(C(F)(F)F)c4)c(Cl)c3)c21
system: NDR1
%Inh, %: 17
//
compound: CS(=O)c1ccc(-c2coc3ccc(-c4n[nH]c(=O)o4)cc23)cc1 (centres unmarked)
system: NDR1
%Inh, %: 2
//
compound: CC(=O)c1c(-c2ccncc2)[nH]c(-c2ccncc2)c1C
system: NDR1
%Inh, %: 19
//
compound: O=C(Nc1ccc(Oc2ccc3nc(NC(=O)C4CC4)cn3n2)c(F)c1)c1cccn(-c2ccccc2)c1=O
system: NDR1
%Inh, %: 3
//
compound: FC(F)(F)c1cc(Br)cc(Nc2nccc(-c3cnn4ncccc34)n2)c1
system: NDR1
%Inh, %: 19
